Each recorded value in this set is attributed to ChEMBL document CHEMBL1909046.

protocolDescription: DRUGMATRIX: Glutamate, AMPA radioligand binding (ligand: [3H] AMPA)
Format: cell membranes, Rattus norvegicus, Wistar, Cerebral cortex, Membrane
conditionDescription: Not Active = under 50% inhibition at 10 µM
readoutLabel: IC50

The examples below pair each entry with its known result.
C#C[C@]1(OC(C)=O)CC[C@H]2[C@@H]3CCC4=CC(=O)CC[C@@H]4[C@H]3CC[C@@]21C [NORETHINDRONE ACETATE] : Not Active
CC(=O)CC(c1ccccc1)c1c(O)c2ccccc2oc1=O (configuration not stated) : Not Active
CN1C(C(=O)Nc2ccccn2)=C(O)c2sccc2S1(=O)=O : Not Active
CC(=O)Nc1c(I)c(NC(C)=O)c(I)c(C(=O)O)c1I : Not Active

Please look at the following compound next.
Entry under test: COc1ccc2cc([C@H](C)C(=O)O)ccc2c1 . Its IC50 was Not Active

====

protocolDescription: DRUGMATRIX: Atrial Natriuretic Factor (ANF) radioligand binding (ligand: [125I] ANF (rat))
Format: cell membranes, Cavia porcellus, Dunkin-Hartley, Adrenal gland, Membrane
conditionDescription: Not Active = under 50% inhibition at 10 µM
Where a SMILES comes first, the peptide text is derived from it. Bridges are numbered along the chain shown (N, C = ends). [ ]: non-standard residue; d: D form. The star is where a group is joined. Threoninol(2S,3R) = C[C@@H](O)[C@H](CO)N*
readoutLabel: IC50

The examples below pair each entry with its known result.
CC(C)[C@H]1CC[C@H](C(=O)N[C@H](Cc2ccccc2)C(=O)O)CC1 [NATEGLINIDE] : Not Active
COc1cccc2c1C(=O)c1c(O)c3c(c(O)c1C2=O)C[C@@](O)(C(=O)CO)C[C@@H]3O[C@H]1C[C@H](N)[C@H](O)[C@H](C)O1 : Not Active
N=C(Nc1ccccc1)Nc1ccccc1 : Not Active
CCCC(CCC)C(=O)O : Not Active
C[C@@H](O)[C@H](CO)NC(=O)[C@@H]1CSSC[C@H](NC(=O)[C@H](N)Cc2ccccc2)C(=O)N[C@@H](Cc2ccccc2)C(=O)N[C@H](Cc2c[nH]c3ccccc23)C(=O)N[C@@H](CCCCN)C(=O)N[C@@H]([C@@H](C)O)C(=O)N1 (H-[dF]CF[dW]KTC-{Threoninol(2S,3R)}; disulfide 2-7) : Not Active

Entry under test: CC(=O)OCC(=O)[C@@]1(O)CC[C@H]2[C@@H]3CCC4=CC(=O)CC[C@]4(C)[C@H]3C(=O)C[C@@]21C [CORTISONE ACETATE] . Its IC50 was Not Active

Entry under test: NC(=O)NO [HYDROXYUREA] . Its IC50 was Not Active

Entry under test: CC(C)(C)c1ccc(C(O)CCCN2CCC(C(O)(c3ccccc3)c3ccccc3)CC2)cc1 (stereo not drawn) . Its IC50 was Not Active

Entry under test: COP(=O)(OC)OC=C(Cl)Cl . Its IC50 was Not Active

Entry under test: CC[C@@H](CO)NCCN[C@@H](CC)CO . Its IC50 was Not Active

====

protocolDescription: DRUGMATRIX: Atrial Natriuretic Factor (ANF) radioligand binding (ligand: [125I] ANF (rat))
Assay type: cell membranes, Cavia porcellus, Dunkin-Hartley, Adrenal gland, Membrane
conditionDescription: Not Active = under 50% inhibition at 10 µM
readoutLabel: IC50

The examples below pair each entry with its known result.
COCCOC(=O)C1=C(C)NC(C)=C(C(=O)OC(C)C)C1c1cccc([N+](=O)[O-])c1 (configuration not stated) : Not Active
O=C(O)Cc1ccccc1Nc1c(Cl)cccc1Cl : Not Active
CC1(C)O[C@@H]2C[C@H]3[C@@H]4C[C@H](F)C5=CC(=O)C=C[C@]5(C)[C@H]4[C@@H](O)C[C@]3(C)[C@]2(C(=O)CO)O1 [FLUNISOLIDE] : Not Active
C[C@]1(Cn2ccnn2)[C@H](C(=O)O)N2C(=O)C[C@H]2S1(=O)=O : Not Active
CCCCOc1ccc(OCCCN2CCOCC2)cc1 : Not Active
Cc1ccc(S(=O)(=O)NC(=O)NN2CC3CCCC3C2)cc1 (configuration not stated) [GLICLAZIDE] : Not Active
CCN[C@@H]1C[C@H](N)[C@@H](O[C@H]2OC(CN)=CC[C@H]2N)[C@H](O)[C@H]1O[C@H]1OC[C@](C)(O)[C@H](NC)[C@H]1O : Not Active
NC(=O)c1cnccn1 [PYRAZINAMIDE] : Not Active
CN(C)c1ccc(C(=C2C=CC(=[N+](C)C)C=C2)c2ccc(N(C)C)cc2)cc1.[Cl-] : Not Active
CCN(CC)CCOC(=O)c1ccc(N)cc1 : Not Active

Entry under test: COCCCOc1ccnc(C[S+]([O-])c2nc3ccccc3[nH]2)c1C (configuration not stated) . Its IC50 was Not Active

Entry under test: CN1C(C(=O)Nc2ccccn2)=C(O)c2sccc2S1(=O)=O . Its IC50 was Not Active

Entry under test: N[C@H](CSC(=S)NCc1ccccc1)C(=O)O . Its IC50 was Not Active

Entry under test: ClC(Cl)Cl [CHLOROFORM] . Its IC50 was Not Active

Entry under test: CC1=C(CC(=O)O)c2cc(F)ccc2/C1=C\c1ccc([S+](C)[O-])cc1 (configuration not stated) . Its IC50 was Not Active

Entry under test: CCC1=C[C@@H]2CN(C1)Cc1c([nH]c3ccccc13)[C@@](C(=O)OC)(c1cc3c(cc1OC)N(C)[C@H]1[C@@](O)(C(=O)OC)[C@H](OC(C)=O)[C@]4(CC)C=CCN5CC[C@]31[C@@H]54)C2 . Its IC50 was Not Active

Entry under test: C[C@]12CC[C@@H]3c4ccc(O)cc4CC[C@H]3[C@@H]1CC[C@@H]2O . Its IC50 was Not Active
